# measured_target: Serotonin N-acetyltransferase (Homo sapiens, UniProt Q16613)
# Sequence (Q16613 whole entry): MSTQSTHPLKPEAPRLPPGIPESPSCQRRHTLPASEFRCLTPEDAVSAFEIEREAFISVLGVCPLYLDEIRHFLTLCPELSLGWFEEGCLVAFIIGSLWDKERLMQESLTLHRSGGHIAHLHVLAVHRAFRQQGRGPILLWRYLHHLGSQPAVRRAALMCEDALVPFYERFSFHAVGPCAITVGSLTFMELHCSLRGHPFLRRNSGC
# experiment_description: Inhibition of human AANAT
measured_quantity: pIC50
Give bare numbers, as −log10 of the molar value.

## Input Give pIC50 only, for `C=CC(=O)NCCc1csc2ccc(OC)cc12` , using Serotonin N-acetyltransferase (Homo sapiens, UniProt Q16613) data.
## Output 4.60

Each recorded value in this set is attributed to ChEMBL document CHEMBL6083231.
